test system: Prunus dulcis; assay: Inhibition of almond beta-glucosidase at 25 uM using p-nitrophenyl D-glucopyranoside as substrate after 3 mins by UV/Vis spectrophotometric method relative to control
Listing of recorded inhibition by entry.

>  <compound>
OC[C@H]1C[C@H](O)[C@H](O)[C@H](O)[C@H]1CO

>  <assay-target>
Prunus dulcis

>  <inhibition, %>
29

$$$$
>  <compound>
OC[C@H]1C[C@H](O)[C@@H](O)[C@@H](O)[C@H]1CO

>  <assay-target>
Prunus dulcis

>  <inhibition, %>
12.7

$$$$
>  <compound>
C[C@H]1O[C@H](O[C@H]2[C@H](O)[C@@H](O)[C@@H](O[C@H]3[C@H](O)[C@@H](O)C(O)O[C@@H]3CO)O[C@@H]2CO)[C@H](O)[C@@H](O)[C@@H]1N[C@H]1C=C(CO)[C@@H](O)[C@H](O)[C@H]1O (some centres undefined) [ACARBOSE]

>  <assay-target>
Prunus dulcis

>  <inhibition, %>
29

$$$$
>  <compound>
OC[C@H]1C[C@@H](O)[C@H](O)[C@H](O)[C@H]1CO

>  <assay-target>
Prunus dulcis

>  <inhibition, %>
28.4

$$$$
